# assay.target: TRPV1 human (Homo sapiens)
# Construct: expressed in transfected cells; host or cells: CHO K1 cells
# Sequence (Q8NER1 whole entry): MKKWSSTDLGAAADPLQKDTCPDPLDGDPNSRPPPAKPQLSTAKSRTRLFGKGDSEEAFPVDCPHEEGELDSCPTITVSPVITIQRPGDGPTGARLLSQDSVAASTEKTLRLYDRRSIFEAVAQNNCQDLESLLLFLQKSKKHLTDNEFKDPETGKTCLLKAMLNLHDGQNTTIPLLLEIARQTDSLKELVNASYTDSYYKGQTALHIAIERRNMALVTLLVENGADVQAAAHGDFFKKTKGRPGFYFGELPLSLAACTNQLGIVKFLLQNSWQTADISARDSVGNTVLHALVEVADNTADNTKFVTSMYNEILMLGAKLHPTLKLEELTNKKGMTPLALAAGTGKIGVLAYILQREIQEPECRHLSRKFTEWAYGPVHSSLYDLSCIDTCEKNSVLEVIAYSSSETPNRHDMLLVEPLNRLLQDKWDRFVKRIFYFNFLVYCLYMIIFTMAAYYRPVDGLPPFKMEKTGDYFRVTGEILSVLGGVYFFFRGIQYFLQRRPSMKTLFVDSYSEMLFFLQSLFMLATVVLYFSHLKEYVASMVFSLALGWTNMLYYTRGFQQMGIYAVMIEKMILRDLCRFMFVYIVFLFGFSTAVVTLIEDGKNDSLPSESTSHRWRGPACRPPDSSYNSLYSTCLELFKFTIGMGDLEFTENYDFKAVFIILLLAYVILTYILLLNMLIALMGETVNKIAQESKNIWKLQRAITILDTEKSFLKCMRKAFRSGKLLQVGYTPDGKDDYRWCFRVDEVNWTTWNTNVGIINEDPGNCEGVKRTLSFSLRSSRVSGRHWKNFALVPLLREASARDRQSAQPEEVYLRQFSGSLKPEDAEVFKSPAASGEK
# assay.name: Functional testing on the vanilloid receptor 1 (VR1/TRPV1): FLIPR Ca2+ influx assay, inhibition of capsaicin (CAP) stimulation
# Assay type: cell-based
# assay.conditions: functional (f) FLIPR assay, capsaicin (CAP) 100 nM; Ki from IC50 by Cheng-Prusoff equation
# Protocol: […] In the process, the Ca^2+ influx is quantified in the FLIPR assay with the aid of a Ca^2+-sensitive dye (type Fluo-4, Molecular Probes Europe BV, Leiden, the Netherlands) in a fluorescent imaging plate reader (FLIPR, Molecular Devices, Sunnyvale, USA), as described hereinafter. […] The FLIPR protocol consists of 2 substance additions. […] After 5 min incubation, 100 nM of capsaicin are applied and the Ca^2+ influx is also determined. […]
Each record here notes measured Ki.
assay.endpoint: Ki (nM)

molecule: Cn1cc(CC(=O)NCc2ccc(C(F)(F)F)nc2C2CCCC2)c2cc(O)ccc21
recorded.value: 8

molecule: CC(C(=O)NCc1ccc(C(F)(F)F)nc1CC1CCCCC1)c1cn(C)c2ccccc12 (stereo not shown)
recorded.value: 35.9

molecule: CC1CCN(c2nc(C(F)(F)F)ccc2CNC(=O)Cc2cn(C)c3ccc(O)cc23)CC1
recorded.value: 0.3

molecule: CC(C(=O)NCc1ccc(C(F)(F)F)nc1N1CCCCC1)c1cn(C)c2ccc(O)cc12 (stereo not shown)
recorded.value: 3.9
